- EXPERIMENT_NOTES: Half life was determined after peroral administration at 10 mg/kg
- Assay type: ADME, organism-based
- Parameters: dose 10 mg/kg, route oral
- SETTINGS: rat, in vivo, po
EXPERIMENTAL_READOUT: half-life (min)

Item under review: Cc1ncc(C(CC(=O)O)CC2CCN(C(=O)CCc3ccc4c(n3)NCCC4)CC2)cn1 (stereo not drawn) . Reported half-life?
156

[a] O=C(O)CC(CCC1CCN(C(=O)CCCNc2ccccn2)CC1)c1ccc2c(c1)OCO2 (stereo not drawn)
[b] O=C(O)CC(CC1CCN(C(=O)CCc2ccc3c(n2)NCCC3)CC1)c1cccc(F)c1 (stereo not drawn)
Of a versus b , which is the one with smaller reported half-life? Output the label that corresponds to your choice.
b

###

- EXPERIMENT_NOTES: Half life was determined after peroral administration at 10 mg/kg
- Assay type: ADME, organism-based
- Parameters: dose 10 mg/kg, route oral
- SETTINGS: rat, in vivo, po
EXPERIMENTAL_READOUT: half-life (h)

Known results for molecules:
Which half-life is reported for this molecule? O=C(O)CC(CC1CCN(C(=O)CCc2ccc3c(n2)NCCC3)CC1)c1ccc2ccccc2c1 (stereo not given)
5.65

Item under review: O=C(O)CC(CCC1CCN(C(=O)c2cccc(NC3=NCC(O)CN3)c2)CC1)c1ccc2c(c1)OCO2 (stereo not given) . Reported half-life?
5.4

[a] O=C(O)CC(CCC1CCN(C(=O)CCc2ccc3c(n2)NCCC3)CC1)c1ccc2c(c1)OCO2 (stereo not given)
[b] O=C(O)CC(CC1CCN(C(=O)CCc2ccc3c(n2)NCCC3)CC1)c1ccc2c(c1)OCO2 (stereo not given)
[c] O=C(O)CC(NC(=O)C1CCN(C(=O)CCc2ccc3c(n2)NCCC3)CC1)c1ccc2c(c1)OCO2 (stereo not given)
List these items ordered by half-life, big to small. Please list the labels in the order you were asked to rank them.
c, a, b

###

- EXPERIMENT_NOTES: Clearance was determined after intravenous administration at 2 mg/kg
- Type: ADME, organism-based
- Design: dose 2 mg/kg, route intravenous
- SETTINGS: rat, in vivo
EXPERIMENTAL_READOUT: CI (mg/kg/µM/h)

Field request: CI | item: COc1ncc(C(CC(=O)O)CC2CCN(C(=O)CCc3ccc4c(n3)NCCC4)CC2)c(OC)n1 (stereo not given)
1

Item O=C(O)CC(CC1CCN(C(=O)CCc2ccc3c(n2)NCCC3)CC1)c1cccnc1 (stereo not given) has what recorded CI?
1.1

Quick check: CI of O=C(O)CC(CC1CCN(C(=O)CCc2ccc3c(n2)NCCC3)CC1)c1ccc2c(c1)OCO2 (stereo not given) ?
0.1

Entry Cc1ncc(C(CC(=O)O)CC2CCN(C(=O)CCc3ccc4c(n3)NCCC4)CC2)cn1 (stereo not given) : reported CI = ?
10.4

Any idea what CI was measured for O=C(O)CC(NC(=O)C1CCN(C(=O)CCc2ccc3c(n2)NCCC3)CC1)c1ccc2c(c1)OCO2 (stereo not given) ?
0.09

[I] O=C(O)CC(CC1CCN(C(=O)CCc2ccc3c(n2)NCCC3)CC1)c1ccc2ccccc2c1 (stereo not given)
[II] O=C(O)CC(CCC1CCN(C(=O)CCc2ccc3c(n2)NCCC3)CC1)c1ccc2c(c1)OCO2 (stereo not given)
Choose between I and II : whose measured CI value is numerically larger? Selection: enter the item's label.
II

[P] O=C(O)CC(CCC1CCN(C(=O)CCCNc2ccccn2)CC1)c1ccc2c(c1)OCO2 (stereo not given)
[Q] O=C(O)CC(CCC1CCN(C(=O)c2cccc(NC3=NCC(O)CN3)c2)CC1)c1ccc2c(c1)OCO2 (stereo not given)
Which record would sort first by descending CI, P or Q ? Write down the label attached to your selection.
P

###

- TARGET_DESC: Integrin alpha-IIb/beta-3 (Homo sapiens, UniProt P05106+P08514)
- Sequence (P08514 32-887 limits assumed, one chain of several): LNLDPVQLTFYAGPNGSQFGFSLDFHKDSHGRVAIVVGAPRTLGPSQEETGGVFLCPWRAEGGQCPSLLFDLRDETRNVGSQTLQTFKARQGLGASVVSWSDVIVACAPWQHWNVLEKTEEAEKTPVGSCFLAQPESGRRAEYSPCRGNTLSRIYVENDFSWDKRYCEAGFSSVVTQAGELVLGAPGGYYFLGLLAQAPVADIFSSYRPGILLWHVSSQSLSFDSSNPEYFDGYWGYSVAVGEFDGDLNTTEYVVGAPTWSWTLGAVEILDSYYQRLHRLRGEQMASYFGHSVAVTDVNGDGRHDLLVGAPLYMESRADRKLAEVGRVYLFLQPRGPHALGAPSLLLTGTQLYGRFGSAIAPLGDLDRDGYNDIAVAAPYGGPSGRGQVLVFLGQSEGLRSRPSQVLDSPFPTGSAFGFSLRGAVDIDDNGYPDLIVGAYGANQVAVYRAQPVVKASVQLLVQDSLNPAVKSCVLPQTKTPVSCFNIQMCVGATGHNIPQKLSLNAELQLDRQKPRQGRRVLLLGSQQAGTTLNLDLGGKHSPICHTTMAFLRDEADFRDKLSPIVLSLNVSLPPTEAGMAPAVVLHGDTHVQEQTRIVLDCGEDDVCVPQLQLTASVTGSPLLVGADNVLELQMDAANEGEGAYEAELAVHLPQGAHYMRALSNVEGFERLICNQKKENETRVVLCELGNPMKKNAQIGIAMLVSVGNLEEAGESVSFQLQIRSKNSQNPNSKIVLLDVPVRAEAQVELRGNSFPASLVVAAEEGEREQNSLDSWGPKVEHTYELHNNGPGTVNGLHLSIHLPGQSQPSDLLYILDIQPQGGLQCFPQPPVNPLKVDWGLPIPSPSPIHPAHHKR
- Sequence (P08514 891-1039 limits assumed, one chain of several): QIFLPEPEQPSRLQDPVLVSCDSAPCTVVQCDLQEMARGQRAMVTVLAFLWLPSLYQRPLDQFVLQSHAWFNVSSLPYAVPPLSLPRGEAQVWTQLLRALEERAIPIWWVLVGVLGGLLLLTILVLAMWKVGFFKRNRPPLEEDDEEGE
- EXPERIMENT_NOTES: Inhibition of human Biotinylated Fg binding to immobilized Alpha II beta-3
- Assay type: protein-complex assay
EXPERIMENTAL_READOUT: IC50 (µM)

[A] O=C(O)C[C@H](NC(=O)[C@@H]1CCCN(C(=O)CCC2CCNCC2)C1)c1cccnc1 [ELAROFIBAN]
[B] O=C(O)CC(NC(=O)C1CCN(C(=O)CCc2ccc3c(n2)NCCC3)CC1)c1ccc2c(c1)OCO2 (centres undefined)
[C] O=C(O)CC(CCC1CCN(C(=O)c2cccc(NC3=NCC(O)CN3)c2)CC1)c1ccc2c(c1)OCO2 (centres undefined)
[D] O=C(O)CC(CC1CCN(C(=O)CCCc2ccc3c(n2)NCCC3)CC1)c1ccc2c(c1)OCO2 (centres undefined)
Using measured IC50, arrange the compounds from above in descending sequence. When ranking, write the labels in the order the request describes.
B, D, C, A
(B: 15.7 µM, D: 4.26 µM, C: 1.58 µM, A: 0.00015 µM)

###

- TARGET_DESC: Integrin alpha-V/beta-3 (Homo sapiens, UniProt P05106+P06756)
- Sequence (P05106 27-788 limits assumed): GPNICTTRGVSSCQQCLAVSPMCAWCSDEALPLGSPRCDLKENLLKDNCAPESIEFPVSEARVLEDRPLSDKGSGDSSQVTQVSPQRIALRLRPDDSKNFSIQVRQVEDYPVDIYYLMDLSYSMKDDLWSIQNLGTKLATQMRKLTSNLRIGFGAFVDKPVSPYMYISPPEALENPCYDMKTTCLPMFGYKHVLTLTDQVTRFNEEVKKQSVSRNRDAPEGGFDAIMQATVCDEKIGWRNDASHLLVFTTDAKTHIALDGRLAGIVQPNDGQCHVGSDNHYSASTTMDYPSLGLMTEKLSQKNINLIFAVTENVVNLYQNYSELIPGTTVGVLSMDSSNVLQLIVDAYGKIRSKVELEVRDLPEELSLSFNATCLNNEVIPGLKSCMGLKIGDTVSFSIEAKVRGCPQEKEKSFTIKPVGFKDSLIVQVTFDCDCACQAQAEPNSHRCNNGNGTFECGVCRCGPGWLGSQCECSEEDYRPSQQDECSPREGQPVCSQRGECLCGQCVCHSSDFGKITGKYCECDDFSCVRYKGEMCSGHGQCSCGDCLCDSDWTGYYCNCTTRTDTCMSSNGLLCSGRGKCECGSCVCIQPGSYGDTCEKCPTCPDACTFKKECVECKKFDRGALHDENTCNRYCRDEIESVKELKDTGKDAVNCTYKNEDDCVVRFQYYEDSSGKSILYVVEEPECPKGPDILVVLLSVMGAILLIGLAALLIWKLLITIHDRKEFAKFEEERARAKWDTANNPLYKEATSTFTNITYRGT
- Sequence (P06756 31-889 limits assumed): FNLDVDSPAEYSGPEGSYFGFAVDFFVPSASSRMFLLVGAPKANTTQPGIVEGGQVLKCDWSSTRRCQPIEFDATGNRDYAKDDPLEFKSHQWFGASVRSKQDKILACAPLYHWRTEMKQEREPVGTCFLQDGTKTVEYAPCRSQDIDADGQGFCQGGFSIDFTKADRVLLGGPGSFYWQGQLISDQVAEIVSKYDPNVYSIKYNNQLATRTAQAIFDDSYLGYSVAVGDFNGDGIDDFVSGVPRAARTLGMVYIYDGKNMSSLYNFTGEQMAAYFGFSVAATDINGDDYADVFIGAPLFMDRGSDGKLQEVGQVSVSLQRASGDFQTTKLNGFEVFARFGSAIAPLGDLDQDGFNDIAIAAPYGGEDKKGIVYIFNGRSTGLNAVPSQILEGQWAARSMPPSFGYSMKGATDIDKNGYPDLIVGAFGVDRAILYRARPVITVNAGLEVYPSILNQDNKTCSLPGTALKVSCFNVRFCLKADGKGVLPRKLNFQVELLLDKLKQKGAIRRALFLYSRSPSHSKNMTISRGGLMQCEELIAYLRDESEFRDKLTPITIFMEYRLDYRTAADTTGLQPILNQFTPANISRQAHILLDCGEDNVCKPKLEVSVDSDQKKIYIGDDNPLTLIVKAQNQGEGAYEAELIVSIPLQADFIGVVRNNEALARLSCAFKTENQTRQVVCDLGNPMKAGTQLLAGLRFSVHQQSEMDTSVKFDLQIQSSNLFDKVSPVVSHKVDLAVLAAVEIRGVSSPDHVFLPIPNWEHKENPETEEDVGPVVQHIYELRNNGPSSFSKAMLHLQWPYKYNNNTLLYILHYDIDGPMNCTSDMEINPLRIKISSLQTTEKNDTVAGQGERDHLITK
- Sequence (P06756 891-1048 limits assumed): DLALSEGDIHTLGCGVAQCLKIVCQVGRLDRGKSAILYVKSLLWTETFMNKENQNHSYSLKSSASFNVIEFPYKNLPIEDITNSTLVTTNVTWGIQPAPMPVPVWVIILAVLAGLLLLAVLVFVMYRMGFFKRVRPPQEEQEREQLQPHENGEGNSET
- EXPERIMENT_NOTES: Inhibition of human vitronectin binding to immobilized Alpha v beta-3
EXPERIMENTAL_READOUT: IC50 (nM)

Requested field: IC50. Item: O=C(O)CC(CCC1CCN(C(=O)CCCNc2ccccn2)CC1)c1ccc2c(c1)OCO2 (centres undefined)
233

If you can, please state the reported IC50 value of O=C(O)CC(CCC1CCN(C(=O)c2cccc(NC3=NCC(O)CN3)c2)CC1)c1ccc2c(c1)OCO2 (centres undefined) .
1.7

[P] O=C(O)CC(NC(=O)C1CCN(C(=O)c2cccc(NC3=CCC(O)CN3)c2)CC1)c1cnc2ccccc2c1 (centres undefined)
[Q] N/C(=N\Cc1ccncc1)Nc1cccc(C(=O)N2CCC(C(=O)NC(CC(=O)O)c3ccc4c(c3)OCO4)CC2)c1 (centres undefined)
Parameter check: reported IC50 is higher for which label, P or Q ? Could you answer with the label of the item you picked?
Q

###

- EXPERIMENT_NOTES: Oral bioavailability (dose in 5% dextrose in water at pH 2)
- Assay type: ADME, organism-based
- SETTINGS: rat, in vivo
EXPERIMENTAL_READOUT: bioavailability (%)

# get_value(readout='bioavailability', item= COc1ncc(C(CC(=O)O)CC2CCN(C(=O)CCc3ccc4c(n3)NCCC4)CC2)c(OC)n1 (stereo not given) )
1

[1] O=C(O)CC(CC1CCN(C(=O)CCc2ccc3c(n2)NCCC3)CC1)c1ccc2ccccc2c1 (stereo not given)
[2] O=C(O)CC(CC1CCN(C(=O)CCc2ccc3c(n2)NCCC3)CC1)c1ccc2c(c1)OCO2 (stereo not given)
[3] O=C(O)CC(CCC1CCN(C(=O)c2cccc(NC3=NCC(O)CN3)c2)CC1)c1ccc2c(c1)OCO2 (stereo not given)
[4] Cc1ncc(C(CC(=O)O)CC2CCN(C(=O)CCc3ccc4c(n3)NCCC4)CC2)cn1 (stereo not given)
Put the entries in order of bioavailability, starting with the largest number. Form entry: ranked labels (order as requested).
1, 2, 4, 3

###

- TARGET_DESC: Integrin alpha-IIb/beta-3 (Homo sapiens, UniProt P05106+P08514)
- EXPERIMENT_NOTES: Inhibition of human Biotinylated Fg binding to immobilized Alpha II beta-3
- Format: protein-complex assay
pIC50: −log10 of the molar value.
EXPERIMENTAL_READOUT: pIC50

Please give the measured pIC50 for this molecule: O=C(O)CC(NC(=O)C1CCN(C(=O)c2cccc(NC3=CCCCN3)c2)CC1)c1ccc2c(c1)OCO2 (centres undefined)
6.68

[1] O=C(O)CC(NC(=O)C1CCN(C(=O)c2cccc(NC3=CCC(O)CN3)c2)CC1)c1cnc2ccccc2c1 (centres undefined)
[2] N/C(=N\Cc1ccncc1)Nc1cccc(C(=O)N2CCC(C(=O)NC(CC(=O)O)c3ccc4c(c3)OCO4)CC2)c1 (centres undefined)
[3] O=C(O)CC(NC(=O)C1CCN(C(=O)CCc2ccc3c(n2)NCCC3)CC1)c1cnc2ccccc2c1 (centres undefined)
Order these by pIC50, descending, and give the full ranking. Submit the labels in the order that the ranking request calls for.
2, 1, 3

###

- TARGET_DESC: Integrin alpha-IIb/beta-3 (Homo sapiens, UniProt P05106+P08514)
- EXPERIMENT_NOTES: Inhibition of human Biotinylated Fg binding to immobilized Alpha II beta-3
- Format: protein-complex assay
EXPERIMENTAL_READOUT: IC50 (µM)

Query IC50 on Integrin alpha-IIb/beta-3 (Homo sapiens, UniProt P05106+P08514) for O=C(O)CC(CCC1CCN(C(=O)CCCNc2ccccn2)CC1)c1ccc2c(c1)OCO2 (configuration not stated)
10.9

Give Integrin alpha-IIb/beta-3 (Homo sapiens, UniProt P05106+P08514) IC50 for O=C(O)CC(c1ccc2c(c1)OCO2)C1CCN(C(=O)CCc2ccc3c(n2)NCCC3)CC1 (configuration not stated)
6.19

[I] O=C(O)CC(NC(=O)C1CCN(C(=O)CCCNC2=NCCN2)CC1)c1cnc2ccccc2c1 (configuration not stated)
[II] O=C(O)CC(CCC1CCN(C(=O)CCc2ccc3c(n2)NCCC3)CC1)c1ccc2c(c1)OCO2 (configuration not stated)
// which entry has the larger IC50 value, I or II ? The response must carry the label of the picked entry.
II
